Where do these numbers come from? They come from Sander's compilation of Henry's law constants (doi:10.1016/s1387-3806(02)00927-2).

Some compounds, each annotated with its measured Henry solubility constant Hcp.
Test: Henry solubility constant Hcp at 298.15 K (mol/(m3 Pa))
Settings: reference: Karl et al. (2003)

{"compound": "CCc1cccc(O)c1 [1-hydroxy-3-ethylbenzene]", "Henry solubility constant Hcp": 4.9}
{"compound": "CCCCCCOC(C)=O [hexyl ethanoate]", "Henry solubility constant Hcp": 0.015}
{"compound": "CC/C=C/CCOC(C)=O [(E)-3-hexenyl ethanoate]", "Henry solubility constant Hcp": 0.033}
{"compound": "COc1nccnc1CC(C)C", "Henry solubility constant Hcp": 0.17}
